Experiment: NCI Yeast Anticancer Drug Screen. Data for the rad52 strain (AID 147);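 note: 0% = growth of vehicle-treated control cultures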
Settings: S. cerevisiae rad52 mutant growth inhibition; at 11.0 µM
About 79,000 compounds went through this panel and 15% of them were active in at least one assay; those are over-represented in the sample as a whole. Activity calls are given as the source filed them. Cut-off read from the data, not from the text of the source: active = growth inhibition above about 70%; inactive = the rest.
Allowed answers: Yes (active), No (inactive)

# Molecule, Category label
data = [
    ("C/C1=C/C2OC(=O)C3(C)C2C(CC2(C)OC1=CC2=O)OC3(O)C(C)C (configuration not stated)", "No"),
    ("CCCCN(CCCC)c1ccc(N=Nc2ccc(S(=O)(=O)O)cc2)cc1", "No"),
    ("CC1(c2ccccc2)O[C@@H]2C[C@H]3[C@@H]4CCC5=CC(=O)C=C[C@]5(C)[C@@]4(F)[C@@H](O)C[C@]3(C)[C@]2(C(=O)CO)O1 (some centres not stated)", "No"),
    ("CCC(=O)Nc1ccc(N=NN(C)C)cc1", "No"),
    ("COc1ccc2c3c1OC(C)C31CC(=O)CCC1CC2 (configuration not stated)", "No"),
    ("CC1=NN(C(=O)c2ccccc2O)C(=O)/C1=C/c1ccco1", "Yes"),
    ("CCCCCCC1OCC(O)C(OCCCC)O1 (configuration not stated)", "No"),
    ("Oc1c2c(c(O)c3ccccc13)C1(N=N2)c2ccccc2Oc2ccccc21", "Yes"),
    ("CC(C)=CCc1c2c(c(O)c3c(=O)c(-c4ccc(O)c(O)c4)coc13)C=CC(C)(C)O2", "Yes"),
    ("Cc1ccc(C)c(C(=N)c2ccccc2Cc2ccccc2)c1", "Yes"),
]

Look up the recorded call for "CCOP(=O)(OCC)/C(C#N)=C/c1ccc(-c2ccc(F)cc2F)o1" in this test.
No

Look up the recorded call for "O=[N+]([O-])c1ccc2[nH]c3c(-c4ccccc4)nccc3c2c1" in this test.
Yes

====

Assay: NCI Yeast Anticancer Drug Screen. Data for the mec2-1 strain (AID 157)
Details: S. cerevisiae mec2-1 strain, at 11.0 µM, active compounds read high
Compounds without any hit were thinned out: in the full panel of roughly 79,000, 15% have a hit. Activity calls are given as the source filed them. Cut-off read from the data, not from the text of the source: active = growth inhibition above about 70%; inactive = the rest.
For each entry below, report its growth inhibition value.

Count: 7. Required value per item: growth inhibition.
1. CC1=CN2C(c3ccccc3)=NON(c3ccc(C)cn3)C2C=C1 (configuration not stated)
2. CC(C)OP(=O)(OC(C)C)/C(Cl)=N/Nc1ccc([N+](=O)[O-])cc1
3. CCC(=O)C1=C(O)c2cc(OC)ccc2CC1C(=O)OC (configuration not stated)
4. CC(C)Cc1ncc(CCCN=C(N)N)[nH]c1=O
5. CCO/C=C1\SC(=S)N(c2ccc(OCC)cc2)C1=O
6. CCCCOc1ccc2nc(C)cc(N=[N+]=[N-])c2c1
7. O=C(/N=N/C(=O)Oc1ccccc1)Oc1ccccc1

-3% (inactive)
52% (inactive)
-1% (inactive)
-3% (inactive)
-27% (inactive)
14% (inactive)
-87% (inactive)

Count: 5. Required value per item: growth inhibition.
1. O=C(O)c1ccccc1C(=O)OC1CCc2ccccc2C1 (configuration not stated)
2. COc1ccc(-c2cc(-c3cc(C)cc(Cl)c3O)nc3[nH]c(=S)[nH]c(=S)c23)cc1
3. Nc1ccc2cc(Br)ccc2c1Br
4. CNC(=O)OCc1c(COC(=O)NC)c(C)n(-c2ccc(Br)cc2)c1C
5. CC(=O)O/N=C1C=C/C(=C(/C#N)c2ccccc2)C=C/1C

["-11% (inactive)", "-2% (inactive)", "-2% (inactive)", "-23% (inactive)", "19% (inactive)"]

Count: 5. Required value per item: growth inhibition.
1. O=[N+]([O-])c1cn[n+]([O-])c2ccccc12
2. CCCCCCCCSC1=C(Cl)C(=O)C(OC)=C(OC)C1=O
3. COc1cc([C@@H]2c3cc4c(cc3[C@@H](NC(=O)NO)[C@H]3COC(=O)[C@H]23)OCO4)cc(OC)c1O
4. O=c1[nH]c2c([N+](=O)[O-])cccc2c2ccccc12
5. CN(C)CCNCCCNc1c2ccccc2nc2cccc([N+](=O)[O-])c12

["52% (inactive)", "-4% (inactive)", "0% (inactive)", "3% (inactive)", "50% (inactive)"]

====

Experiment: NCI Yeast Anticancer Drug Screen. Data for the mlh1 strain (AID 171);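 note: 0% = growth of vehicle-treated control cultures of the same strain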
Settings: S. cerevisiae mlh1 strain growth inhibition; at 3.7 µM; active compounds read high
This is part of a sample that, as a whole, favours compounds with a hit. Of some 79,000 tested, about 15% had one in any assay.
Property: growth inhibition (%)
One number for each entry, in %.

Sample records with growth inhibition:
# Compound, Unit abbreviation, growth inhibition
measured = [
    ("CC1CCN(CCC(=O)c2ccc([N+](=O)[O-])cc2)CC1", "%", 7),
    ("CCO/C=C1\\SC(=S)N(c2ccc(OCC)cc2)C1=O", "%", -12),
]

Count: 7. Required value per item: growth inhibition.
1. Cc1ccc(C)c(C(=N)c2ccccc2Cc2ccccc2)c1
2. COc1cc(C2C3=C(COC3=O)Oc3cc4c(cc32)OCO4)cc(OC)c1O (stereo not given)
3. CCC[CH2][Ge]([CH2]CCC)([CH2]CCC)[O]C(=O)C(O)c1ccccc1 (stereo not given)
4. CC(=O)O/N=C1C=C/C(=C(/C#N)c2ccccc2)C=C/1C
5. O=[N+]([O-])c1ccc2[nH]c3c(-c4ccccc4)nccc3c2c1
6. CCCCCCCCCCCNC=O
7. C=CCNC1=C2C[C@@H](C)C[C@H](OC)[C@H](O)[C@@H](C)/C=C(\C)[C@H](OC(N)=O)[C@@H](OC)/C=C\C=C(/C)C(=O)NC(=CC1=O)C2=O

1. 35
2. 0
3. -2
4. 8
5. 15
6. -19
7. -56

Given the compound "CCN(CC)CCC(=O)Nc1ccc2sc3ccccc3c(=O)c2n1" , what is its reported growth inhibition?
-8

====

Assay: NCI Yeast Anticancer Drug Screen. Data for the mlh1 rad18 strain (AID 175)
Details: S. cerevisiae mlh1 rad18 strain growth inhibition; at 50.0 µM; active compounds read high
About 79,000 compounds went through this panel and 15% of them were active in at least one assay; those are over-represented in the sample as a whole. Calls of active or inactive are those of the source. Cut-off read from the data, not from the text of the source: active = growth inhibition above about 70%; inactive = the rest.
Property: growth inhibition

Sample records with growth inhibition:
# Compound, growth inhibition
measured = [
    ("NC(N)=NC(N)=Nc1ccccc1 (tested in a mixture with another compound)", "47% (inactive)"),
    ("CC(C)OC(=O)NNc1c(Cl)cc(Cl)cc1Cl", "24.9% (inactive)"),
    ("CCC1(O)C(=O)OCc2c1cc1n(c2=O)Cc2cc3c(N)cccc3nc2-1 (stereo unspecified)", "-65.3% (inactive)"),
]

Count: 2. Required value per item: growth inhibition.
1. O=c1[nH]c2c([N+](=O)[O-])cccc2c2ccccc12
2. O=c1c2ccccc2nc(-c2ccc(Cl)cc2)n1O

1: 96.2% (active); 2: 96.1% (active)

Count: 6. Required value per item: growth inhibition.
1. O=C1NC(c2cccc(OCc3ccccc3)c2)Nc2ccccc21 (stereo unspecified)
2. O=CC1(F)CC1(c1ccccc1)c1ccccc1 (stereo unspecified)
3. CCOC(=O)CC1(C)/C(=N\Nc2ccc([N+](=O)[O-])cc2[N+](=O)[O-])CCC2C1CCC1(C)C(C(C)CCCC(C)C)CCC21 (stereo unspecified)
4. NC(=O)NC1C(c2ccccc2)=C1c1ccccc1
5. CNC(=O)OCc1c(COC(=O)NC)c(C)n(-c2ccc(Br)cc2)c1C
6. Cc1cc(C)c2[s+]snc2c1

["65.2% (inactive)", "14.2% (inactive)", "0.05% (inactive)", "44.7% (inactive)", "86.8% (active)", "76% (active)"]

====

Test: NCI Yeast Anticancer Drug Screen. Data for the rad50 strain (AID 155);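 note: 0% = growth of vehicle-only cultures of the same strain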
Settings: S. cerevisiae rad50 strain growth inhibition; at 11.0 µM; active compounds read high
Protocol: Growth inhibition of yeast strains with defined genetic alterations is measured as a screen for potential anti-cancer activity. Selected strains with alterations in DNA damage repair or cell cycle control were exposed to compounds and growth inhibition was measured relative to vehicle treated controls. The strain used in this assay is rad50
Compounds without any hit were thinned out: in the full panel of roughly 79,000, 15% have a hit.
Property: growth inhibition (%)
Numbers only, in %.

# Compound, Unit abbreviation, growth inhibition
measured = [
    ("COc1cc2oc3ccccc3c(=O)c2cc1CSc1ccccc1N", "%", 1),
]

Count: 5. Required value per item: growth inhibition.
1. O=C1c2cccc3cccc(c23)C(=O)N1O
2. O=C(NCCCCN1CC2CCCC2C1)C(C1CCCCC1)C1CCCCC1 (stereo not given)
3. C[n+]1c(-c2ccc(/C=N/NC(=O)c3ccc(C(=O)N/N=C/c4ccc(-c5cn6ccccc6[n+]5C)cc4)cc3)cc2)cn2ccccc21
4. O=C1c2ccccc2-c2cc3ccccc3c(=O)n21
5. N#CCCC1C(C#N)C2(Cl)CC1(Cl)C(Cl)=C2Cl (stereo not given)

[13, 34, 16, 88, 1]

Hey, just so you know, these numbers are from PubChem BioAssay (NCI).
